test system: SK-OV-3 ovarian; test: NCI-60 one-dose screen, 48 h (100 = growth as untreated, 0 = no growth, -100 = all killed); conditions: 10 µM unless noted
This is part of a sample that, as a whole, favours compounds with a hit. Of some 83,000 tested, about 20% had one in any assay. Calls of active or inactive are those of the source. How the source made its calls: active means growth percent below 10; inactive means the rest.
quantity_kind: growth

Use these answered entries as a reference point.
Prompt: Form field: reported growth of CC(=O)[O][Hg][c]1nc2c(c(=O)n(C)c(=O)n2C)n1C
Response: 115% (inactive)

Prompt: Form field: reported growth of O=C(CC1(O)C(=O)Nc2ccc(F)cc21)c1ccc(C(=O)NCC2CCC3(CC2)OOC2(CCCCC2)OO3)cc1 (stereo unspecified)
Response: 91.1% (inactive)

Prompt: Form field: reported growth of CC(=O)N(C)C1=Nc2ccc(Cl)cc2C(c2ccccc2)=[N+]([O-])C1
Response: 102% (inactive)

Prompt: Form field: reported growth of Clc1ccc(SSC(Cl)(Cl)Cl)cc1
Response: 115% (inactive)

Prompt: Form field: reported growth of CC(C)[C@]12O[C@H]1[C@@H]1O[C@]13[C@]1(O[C@H]1C[C@H]1C4=C(CC[C@@]13C)C(=O)OC4)[C@@H]2OC(=O)OC(C)(C)C
Response: 43.6% (inactive)

Now take the following compound into account.
Prompt: Form field: reported growth of O=C(O)CC(Br)C(=O)CBr (stereo unspecified)
Response: 106% (inactive)
